Value source: paper PMC10580381

test system: H1975 cells
PARAMETER_MEASURED: viability (%)

> print(dat)
                                        smi  experimental.value
1  COc1cc2ncnc(Nc3ccc(F)c(Cl)c3)c2cc1OCCCN1CCOCC1                  61

----------
target: recombinant human HDAC2 (Homo sapiens, UniProt Q92769); experiment: Biochemical HDAC activity assay, recombinant HDAC2; conditions: recombinant HDAC2, mean ± SD, three independent experiments
Sequence (Q92769 whole entry): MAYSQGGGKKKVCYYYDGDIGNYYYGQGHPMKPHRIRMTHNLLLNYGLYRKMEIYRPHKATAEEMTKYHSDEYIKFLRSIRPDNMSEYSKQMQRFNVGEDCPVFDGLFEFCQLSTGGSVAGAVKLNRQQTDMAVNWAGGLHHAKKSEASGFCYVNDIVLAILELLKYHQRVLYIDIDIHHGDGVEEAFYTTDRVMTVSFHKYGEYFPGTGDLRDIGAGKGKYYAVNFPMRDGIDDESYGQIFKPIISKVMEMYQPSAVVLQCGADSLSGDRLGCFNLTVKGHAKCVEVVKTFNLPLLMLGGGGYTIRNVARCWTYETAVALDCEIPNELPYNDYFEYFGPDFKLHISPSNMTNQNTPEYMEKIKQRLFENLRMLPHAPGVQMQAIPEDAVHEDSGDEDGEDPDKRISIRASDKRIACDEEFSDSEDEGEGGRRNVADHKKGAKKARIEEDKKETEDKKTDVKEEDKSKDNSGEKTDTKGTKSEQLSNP
PARAMETER_MEASURED: IC50 (nM)

> print(dat)
                                        smi  experimental.value
1  Fc1ccc(C(c2ccc(F)cc2)N2CCN(C/C=C/c3ccccc3)CC2)cc1                 360
